- method: in vivo
- Format: in vivo, Sprague–Dawley rats
- measurement-parameters: male, Sprague-Dawley, rat, in vivo; SD rats, single oral D7 4 mL/kg, plasma
measurement-type: Tmax
Kindly format the answer as number then unit.

Example entries and their recorded answers appear below.
| smiles-code | Tmax |
| --- | --- |
| O=c1ccc2cc3ccoc3cc2o1 | 6 h |
| COc1c2occc2cc2ccc(=O)oc12 | 1 h |

May I ask what Tmax has been recorded for COc1c2ccoc2cc2oc(=O)ccc12 ?
1 h

May I ask what Tmax has been recorded for O=c1ccc2ccc3occc3c2o1 ?
6 h

May I ask what Tmax has been recorded for CC(C)=CCc1cc2c(cc1O)oc(=O)c1c3ccc(O)cc3oc21 ?
0.5 h
